conditions: in ethylene glycol, 318.15 K
value type: solubility (mole fraction)
Numbers only.

Problem: Bench note: what solubility (mole fraction) did NC(N)=NC(N)=NCCc1ccccc1 show?
Solution: 0.011

---

settings: in water, 313.15 K
value type: solubility (mole fraction)
Give bare numbers.

Problem: // returns reported solubility (mole fraction) for input NC(N)=NC(N)=NCCc1ccccc1
Solution: 0.00148

---

conditions: in n-butanol, 308.15 K
value type: solubility (mole fraction)

Problem: Reported solubility (mole fraction) for NC(N)=NC(N)=NCCc1ccccc1 : what is it?
Solution: 0.00194

---

details: in DMSO, 303.15 K
value type: solubility (mole fraction)

Problem: GET /values?readout=solubility (mole fraction)&item= NC(N)=NC(N)=NCCc1ccccc1
Solution: 0.0305
